Measure: melting point

Some entries whose results are on file:
Nc1nccc2occc12 ... 122 to 124 °C
CC(C)(C)OC(=O)NCCNS(=O)(=O)c1cc([N+](=O)[O-])c(Cl)s1 ... 116 °C
CCc1cc2c(C(=O)O)ccc(OC)c2o1 ... 215 to 216 °C
COC(=S)c1ccncc1Cc1ccc(OC)cc1 ... 99 to 100 °C
C=CCOc1c(N)cc2c(C)cc(=O)oc2c1C ... 146 to 147 °C

Reported melting point ( CN(C)C1(c2ccccc2)CCC(CNC(=O)N2CCC(c3c[nH]c4ccccc34)C2)CC1 (centres undefined) ) = 103 to 106 °C

For record Cc1cc(N)nc(CCc2nc3cc(-c4ccc(F)cc4)cnc3[nH]2)c1 the listed melting point is 228 °C

get_value(item= COc1ccc(C2Nc3ccccc3-c3c([N+](=O)[O-])cnn32)cc1 (centres undefined) , readout=melting point) returns 181 to 183 °C

Entry CCCOCCn1c(CN2CCN(C)CC2)nc2ccccc21 — recorded melting point = 73 to 75.5 °C

Values were extracted from a melting point compilation (Tetko et al.; mined from patent text by program, amines drawn as free bases though some values may be those of a salt).
